# System Name: serotonin-2 (HT-2) receptor (Rattus norvegicus, UniProt P14842)
# Sequence (P14842 whole entry): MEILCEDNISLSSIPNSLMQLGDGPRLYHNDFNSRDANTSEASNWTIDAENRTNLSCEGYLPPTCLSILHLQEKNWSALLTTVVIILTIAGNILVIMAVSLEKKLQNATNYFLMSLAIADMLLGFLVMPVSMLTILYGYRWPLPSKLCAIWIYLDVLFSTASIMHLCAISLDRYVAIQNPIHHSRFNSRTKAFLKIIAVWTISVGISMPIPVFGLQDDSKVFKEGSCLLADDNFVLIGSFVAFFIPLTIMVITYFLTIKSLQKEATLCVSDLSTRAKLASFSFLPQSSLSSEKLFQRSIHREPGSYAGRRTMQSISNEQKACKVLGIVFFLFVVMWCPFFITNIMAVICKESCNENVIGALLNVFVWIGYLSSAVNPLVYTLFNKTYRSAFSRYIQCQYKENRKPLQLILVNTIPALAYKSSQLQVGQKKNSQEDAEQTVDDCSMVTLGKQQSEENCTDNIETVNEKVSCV
pIC50: −log10 of the molar value.
Value Type: pIC50

> print(dat)
                                   molecule  value.type  measured.number
1  CCSC[C@H]1CN(C)C[C@H]2c3cc(OC)cc(Br)c3OC[C@H]12 (relative stereo)       pIC50             7.66
